- PROTOCOL_NOTES: refractive index (Na D-line) (dimensionless); an = ratio of the nth substance listed
- EXPERIMENTAL_SETUP: 298.15 K; 101 kPa; Liquid; Standard Abbe refractometry; a2 = 3
± gives the expanded uncertainty stated by the source.
READOUT_KIND: refractive index

• CCC[N+](CCC)(CCC)Cc1ccccc1.[Cl-] [benzyltripropylammonium chloride] + OCC(O)CO = 1.5036 ± 0.0008
• CCC[N+](CCC)(CCC)Cc1ccccc1.[Cl-] [benzyltripropylammonium chloride] + OCCO = 1.4965 ± 0.0008
• CCC[N+](CCC)(CCC)Cc1ccccc1.[Cl-] [benzyltripropylammonium chloride] + Oc1ccccc1 = 1.5471 ± 0.0008
• CCC[N+](CCC)(CCC)Cc1ccccc1.[Cl-] [benzyltripropylammonium chloride] + CC(O)C(=O)O = 1.4926 ± 0.0015

###

- PROTOCOL_NOTES: an = ratio of the nth substance listed
- EXPERIMENTAL_SETUP: 328.15 K; 101 kPa; Liquid; Sing-around technique in a fixed-path interferometer; a2 = 3
READOUT_KIND: speed of sound (m/s)

* CCC[N+](CCC)(CCC)Cc1ccccc1.[Cl-] [benzyltripropylammonium chloride] + OCCO | 1657.5
* CCC[N+](CCC)(CCC)Cc1ccccc1.[Cl-] [benzyltripropylammonium chloride] + OCC(O)CO | 1760.1
* CCC[N+](CCC)(CCC)Cc1ccccc1.[Cl-] [benzyltripropylammonium chloride] + CC(O)C(=O)O | 1550.1
* CCC[N+](CCC)(CCC)Cc1ccccc1.[Cl-] [benzyltripropylammonium chloride] + Oc1ccccc1 | 1580.7

###

- PROTOCOL_NOTES: an = ratio of the nth substance listed
- EXPERIMENTAL_SETUP: 328.15 K; 101 kPa; Liquid; Alternating current cell with electrodes; a2 = 3
READOUT_KIND: electrical conductivity (S/m)

- CCC[N+](CCC)(CCC)Cc1ccccc1.[Cl-] [benzyltripropylammonium chloride] + OCC(O)CO: 0.048
- CCC[N+](CCC)(CCC)Cc1ccccc1.[Cl-] [benzyltripropylammonium chloride] + CC(O)C(=O)O: 0.0201
- CCC[N+](CCC)(CCC)Cc1ccccc1.[Cl-] [benzyltripropylammonium chloride] + Oc1ccccc1: 0.118
- CCC[N+](CCC)(CCC)Cc1ccccc1.[Cl-] [benzyltripropylammonium chloride] + OCCO: 0.228

###

This listing pairs compounds with measured viscosity.
- PROTOCOL_NOTES: an = ratio of the nth substance listed
- EXPERIMENTAL_SETUP: 308.15 K; 101 kPa; Liquid; Falling or rolling sphere viscometry; a2 = 3
Numbers after ± are expanded uncertainties.
READOUT_KIND: viscosity

• CCC[N+](CCC)(CCC)Cc1ccccc1.[Cl-] [benzyltripropylammonium chloride] + CC(O)C(=O)O = 1288.3 ± 150 mPa·s
• CCC[N+](CCC)(CCC)Cc1ccccc1.[Cl-] [benzyltripropylammonium chloride] + OCCO = 121 ± 3.8 mPa·s
• CCC[N+](CCC)(CCC)Cc1ccccc1.[Cl-] [benzyltripropylammonium chloride] + OCC(O)CO = 1179.6 ± 130 mPa·s
• CCC[N+](CCC)(CCC)Cc1ccccc1.[Cl-] [benzyltripropylammonium chloride] + Oc1ccccc1 = 156.7 ± 6.3 mPa·s

###

- PROTOCOL_NOTES: an = ratio of the nth substance listed
- EXPERIMENTAL_SETUP: 343.15 K; 101 kPa; Liquid; Sing-around technique in a fixed-path interferometer; a2 = 3
READOUT_KIND: speed of sound (m/s)

- CCC[N+](CCC)(CCC)Cc1ccccc1.[Cl-] [benzyltripropylammonium chloride] + OCC(O)CO: 1719.2
- CCC[N+](CCC)(CCC)Cc1ccccc1.[Cl-] [benzyltripropylammonium chloride] + CC(O)C(=O)O: 1513.6
- CCC[N+](CCC)(CCC)Cc1ccccc1.[Cl-] [benzyltripropylammonium chloride] + Oc1ccccc1: 1536.1
- CCC[N+](CCC)(CCC)Cc1ccccc1.[Cl-] [benzyltripropylammonium chloride] + OCCO: 1615.7

###

This listing pairs compounds with measured mass density.
- PROTOCOL_NOTES: an = ratio of the nth substance listed
- EXPERIMENTAL_SETUP: 333.15 K; 101 kPa; Liquid; Vibrating tube method; a2 = 3
Numbers after ± are expanded uncertainties.
READOUT_KIND: mass density

- CCC[N+](CCC)(CCC)Cc1ccccc1.[Cl-] [benzyltripropylammonium chloride] + CC(O)C(=O)O: 1092.1 ± 11 kg/m3
- CCC[N+](CCC)(CCC)Cc1ccccc1.[Cl-] [benzyltripropylammonium chloride] + OCCO: 1039.03 ± 0.92 kg/m3
- CCC[N+](CCC)(CCC)Cc1ccccc1.[Cl-] [benzyltripropylammonium chloride] + OCC(O)CO: 1108.32 ± 0.83 kg/m3
- CCC[N+](CCC)(CCC)Cc1ccccc1.[Cl-] [benzyltripropylammonium chloride] + Oc1ccccc1: 1034.12 ± 0.91 kg/m3

###

This listing pairs molecules with measured speed of sound.
- PROTOCOL_NOTES: an = ratio of the nth substance listed
- EXPERIMENTAL_SETUP: 323.15 K; 101 kPa; Liquid; Sing-around technique in a fixed-path interferometer; a2 = 3
READOUT_KIND: speed of sound (m/s)

* CCC[N+](CCC)(CCC)Cc1ccccc1.[Cl-] [benzyltripropylammonium chloride] + CC(O)C(=O)O | 1563.7
* CCC[N+](CCC)(CCC)Cc1ccccc1.[Cl-] [benzyltripropylammonium chloride] + OCCO | 1671.9
* CCC[N+](CCC)(CCC)Cc1ccccc1.[Cl-] [benzyltripropylammonium chloride] + Oc1ccccc1 | 1596.2
* CCC[N+](CCC)(CCC)Cc1ccccc1.[Cl-] [benzyltripropylammonium chloride] + OCC(O)CO | 1774.7

###

- PROTOCOL_NOTES: an = ratio of the nth substance listed
- EXPERIMENTAL_SETUP: 303.15 K; 101 kPa; Liquid; Vibrating tube method; a2 = 3
This listing pairs compounds with measured mass density.
READOUT_KIND: mass density (kg/m3)

* CCC[N+](CCC)(CCC)Cc1ccccc1.[Cl-] [benzyltripropylammonium chloride] + OCCO | 1057.52
* CCC[N+](CCC)(CCC)Cc1ccccc1.[Cl-] [benzyltripropylammonium chloride] + OCC(O)CO | 1126.92
* CCC[N+](CCC)(CCC)Cc1ccccc1.[Cl-] [benzyltripropylammonium chloride] + Oc1ccccc1 | 1053.73
* CCC[N+](CCC)(CCC)Cc1ccccc1.[Cl-] [benzyltripropylammonium chloride] + CC(O)C(=O)O | 1113.49

###

- PROTOCOL_NOTES: an = ratio of the nth substance listed
- EXPERIMENTAL_SETUP: 318.15 K; 101 kPa; Liquid; Alternating current cell with electrodes; a2 = 3
This listing pairs compounds with measured electrical conductivity.
READOUT_KIND: electrical conductivity (S/m)

* CCC[N+](CCC)(CCC)Cc1ccccc1.[Cl-] [benzyltripropylammonium chloride] + OCC(O)CO | 0.0289
* CCC[N+](CCC)(CCC)Cc1ccccc1.[Cl-] [benzyltripropylammonium chloride] + Oc1ccccc1 | 0.0838
* CCC[N+](CCC)(CCC)Cc1ccccc1.[Cl-] [benzyltripropylammonium chloride] + CC(O)C(=O)O | 0.0103
* CCC[N+](CCC)(CCC)Cc1ccccc1.[Cl-] [benzyltripropylammonium chloride] + OCCO | 0.17

###

- PROTOCOL_NOTES: an = ratio of the nth substance listed
- EXPERIMENTAL_SETUP: 343.15 K; 101 kPa; Liquid; Falling or rolling sphere viscometry; a2 = 3
Numbers after ± are expanded uncertainties.
This listing pairs molecules with measured viscosity.
READOUT_KIND: viscosity

- CCC[N+](CCC)(CCC)Cc1ccccc1.[Cl-] [benzyltripropylammonium chloride] + OCCO: 22.2 ± 0.3 mPa·s
- CCC[N+](CCC)(CCC)Cc1ccccc1.[Cl-] [benzyltripropylammonium chloride] + CC(O)C(=O)O: 81.3 ± 3 mPa·s
- CCC[N+](CCC)(CCC)Cc1ccccc1.[Cl-] [benzyltripropylammonium chloride] + OCC(O)CO: 97 ± 2.4 mPa·s
- CCC[N+](CCC)(CCC)Cc1ccccc1.[Cl-] [benzyltripropylammonium chloride] + Oc1ccccc1: 20.4 ± 0.3 mPa·s

###

This listing pairs compounds with measured speed of sound.
- PROTOCOL_NOTES: an = ratio of the nth substance listed
- EXPERIMENTAL_SETUP: 333.15 K; 101 kPa; Liquid; Sing-around technique in a fixed-path interferometer; a2 = 3
READOUT_KIND: speed of sound (m/s)

- CCC[N+](CCC)(CCC)Cc1ccccc1.[Cl-] [benzyltripropylammonium chloride] + Oc1ccccc1: 1565.5
- CCC[N+](CCC)(CCC)Cc1ccccc1.[Cl-] [benzyltripropylammonium chloride] + OCCO: 1643.3
- CCC[N+](CCC)(CCC)Cc1ccccc1.[Cl-] [benzyltripropylammonium chloride] + CC(O)C(=O)O: 1537.3
- CCC[N+](CCC)(CCC)Cc1ccccc1.[Cl-] [benzyltripropylammonium chloride] + OCC(O)CO: 1745.9
